# ASSAY OVERVIEW: small-molecule microarray binders of probe aCHRDL2, primary screen, biochemical, biotinylated probe, 635/667 nm fluorescence (AID 1100)
# MEASUREMENT PARAMETERS: higher = more signal
Quick reference: composite z-score of the listed items.
In your answer, state the number alone without any accompanying words.

Examples with answers:
• CC(=O)Nc1cc(Br)ccc1C(=O)O = 0.0861
• CC(C)(C)N1CC=CC23O[C@@H]4C=CCOC(=O)[C@@H]4[C@H]2C(=O)N(CCCCCO)[C@@H]3C1=O (stereo not given in full) = 0.0408
• CC(C)NC(=O)[C@@]1(Cc2ccccc2I)c2ccccc2C(=O)N(Cc2ccccc2)[C@H]1c1ccc(CO)cc1 = 0.715
• O=C(CS)NCCCCCCNC(=O)[C@@H]1C[C@@H]2C(=O)N3CCC[C@H]3C(=O)N2[C@@H]1c1ccc(O)cc1 = 0.597

For CC(C)Cc1ccc(CN2CC[C@@H](NS(=O)(=O)c3ccccc3)C2)cc1 , write its composite z-score.
-0.747

For O=c1cccc(C=Cc2ccccc2)o1 , write its composite z-score.
0.756

For C=CCC(OC(C)=O)[C@@H]1[C@@H](N(Cc2cccc3ccccc23)C(=O)c2ccc(C)cc2)c2cc(OCCCO)ccc2N1C(=O)Cc1ccc(OC)cc1 (stereo not given in full) , write its composite z-score.
-0.281

For CC(C)N1C(=O)C[C@@](C(=O)NCc2ccccc2)(c2ccc([N+](=O)[O-])cc2)[C@H]1c1ccc(CO)cc1 , write its composite z-score.
0.934

For CCCCCCc1nc(CCCc2cc3c(c(CCCCCC)n2)[Si](C(C)C)(C(C)C)OC3)cc2c1[Si](C(C)C)(C(C)C)OC2 , write its composite z-score.
-0.138

For COc1ccc(C#Cc2ccc3c(c2)[C@]2(C(=O)N3)[C@H](C(=O)NC[C@H](O)c3ccccc3)[C@H]3C(=O)O[C@H](c4ccccc4)[C@H](c4ccccc4)N3[C@@H]2c2ccc(OCCO)cc2)cc1 , write its composite z-score.
0.236

For CCOC(=O)C1=CCC(C(C)(C)C)N(S(=O)(=O)c2ccc(C)cc2)C1 (stereo not given) , write its composite z-score.
0.108

For CCOC(=O)C1=CCC(c2ccc(C#N)cc2)N(S(=O)(=O)c2ccc(C)cc2)C1 (stereo not given) , write its composite z-score.
1.05

For COc1cc2c(cc1O)C(C)N(Cc1cccc(OC(F)(F)F)c1)CC2 (stereo not given) , write its composite z-score.
0.23

For CC1CC/C=C\[C@H]2OC34C=CCN(Cc5ccccc5)C(=O)[C@H]3N(CCCCCO)C(=O)[C@@H]4C2C(=O)O1 (stereo not given in full) , write its composite z-score.
0.144

For N#Cc1ccc(NN2C(C(O)C3CCCCC3)C=CC3C(=O)N(c4ccccc4)C(=O)C32)cc1 (stereo not given) , write its composite z-score.
0.811

###

# ASSAY OVERVIEW: A549 lung cancer cell viability effects, profiling panel, resazurin fluorescence, 24 h, PK04 Diversity Set (AID 1171); also: test concentration not given here
# MEASUREMENT PARAMETERS: higher = more signal, called active from +8 up or from −8 down
So basically: z-score at 0.4 or higher? That is T. Lower than 0.4? That is F.

* CCOc1cc(C(O)C2C=CC3C(=O)N(c4ccccc4)C(=O)C3N2Nc2ccc([N+](=O)[O-])cc2)ccc1O (centres undefined) | F
* CCOC(=O)C1=CC[C@@H](c2ccccc2)N(S(=O)(=O)c2ccc(C)cc2)[C@H]1C(=O)OCC | T
* O=C/C=C/c1ccc(Cl)cc1 | F
* Cc1cc(C)c(C(O)C2C=CC3C(=O)N(C)C(=O)C3N2Nc2ccccc2)c(C)c1 (centres undefined) | F

Item C=C[C@@H](COC(C)=O)N(Cc1ccccc1[N+](=O)[O-])S(=O)(=O)c1ccc(Br)cc1 with z-score of 0.4 or above?
F

Item C=CCNC(=O)[C@@H]1[C@H]2C(=O)O[C@H](c3ccccc3)[C@H](c3ccccc3)N2[C@H](c2ccccc2OCCO)[C@@]12C(=O)Nc1ccc(C#CC3=CCCCC3)cc12 with z-score of 0.4 or above?
F

Item COCCOC(=O)N1C(=O)[C@@]2(c3ccccc31)[C@H](C(=O)NC[C@H](O)c1ccccc1)[C@H]1C(=O)O[C@H](c3ccccc3)[C@H](c3ccccc3)N1[C@@H]2c1ccc(OCCO)cc1 with z-score of 0.4 or above?
F

Item COc1cc2c(cc1OC)CN(C(=O)[C@@H]1[C@H]3C(=O)O[C@H](c4ccccc4)[C@H](c4ccccc4)N3[C@H](c3ccccc3OCCO)[C@@]13C(=O)Nc1ccc(C#CCNC(N)=O)cc13)CC2 with z-score of 0.4 or above?
F

Item O=C1OCCC/C=C\[C@H]2OC34C=CCN(Cn5nnc6ccccc65)C(=O)[C@H]3N(CCCCCO)C(=O)[C@@H]4C12 (some centres undefined) with z-score of 0.4 or above?
F

Item CC(=O)NCCCC[C@@H]1NC(=O)[C@@H]2C[C@H](C(=O)NCCCCN(C)C)[C@H](c3ccc(O)cc3)N2C1=O with z-score of 0.4 or above?
T

Where these numbers come from: PubChem BioAssay
